# test.name: Aqueous solubility of the compound
# Format: physicochemical
# particulars: buffer
measured.quantity: solubility

>>> result("CN1CCN(c2ccc(-c3cc(=O)c4ccc5ccccc5c4o3)cc2)CC1")
"> 20 mg/mL"

----------
# study.target: UniProt Q16678
# Sequence (Q16678 whole entry): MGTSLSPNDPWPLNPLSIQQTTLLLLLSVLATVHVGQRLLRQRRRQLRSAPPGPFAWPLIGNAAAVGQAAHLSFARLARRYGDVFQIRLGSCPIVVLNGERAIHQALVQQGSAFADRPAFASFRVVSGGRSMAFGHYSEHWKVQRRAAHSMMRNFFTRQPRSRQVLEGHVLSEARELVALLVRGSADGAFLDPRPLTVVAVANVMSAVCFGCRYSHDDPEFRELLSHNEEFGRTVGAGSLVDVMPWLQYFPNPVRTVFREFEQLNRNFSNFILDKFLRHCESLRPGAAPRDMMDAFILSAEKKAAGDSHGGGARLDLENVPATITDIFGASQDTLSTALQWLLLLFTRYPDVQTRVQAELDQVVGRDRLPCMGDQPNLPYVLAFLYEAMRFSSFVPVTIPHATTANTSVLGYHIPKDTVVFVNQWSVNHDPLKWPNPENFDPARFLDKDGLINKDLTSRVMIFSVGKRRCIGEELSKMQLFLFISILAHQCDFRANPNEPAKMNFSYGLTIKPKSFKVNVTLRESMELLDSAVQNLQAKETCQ
# test.name: Potency index, ratio of IC50 for ANF to IC50 for test compound for inhibition of human recombinant CYP1B1 using 7-ethoxyresorufin as substrate in presence of glucose-6-phosphate, glucose-6-phosphate dehydrogenase and NADPH-generating system incubated for 35 mins by fluorometry
# particulars: read-out: Ratio IC50
selectivity ratio at 35 min for assorted compounds
measured.quantity: selectivity ratio at 35 min

>>> result_number("O=c1cc(-c2cccc(C(F)(F)F)c2)oc2c1ccc1ccccc12")
11.3
>>> result_number("O=c1cc(-c2cccc(N3CCOCC3)c2)oc2c1ccc1ccccc12")
3
>>> result_number("CN1CCN(c2cc(Cl)cc(-c3cc(=O)c4ccc5ccccc5c4o3)c2)CC1")
0.12

----------
// Ratio IC50 lookup, one value per entry
# Species: Homo sapiens
# test.name: Selectivity index, ratio of IC50 for human recombinant CYP1A2 to IC50 for human recombinant CYP1B1 using 7-ethoxyresorufin as substrate in presence of glucose-6-phosphate, glucose-6-phosphate dehydrogenase and NADPH-generating system by fluorometry
measured.quantity: Ratio IC50

>>> result_number("O/N=c1\\cc(-c2ccccc2)oc2c1ccc1ccccc12")
23.3
>>> result_number("O=c1cc(-c2ccccc2Cl)oc2c1ccc1ccccc12")
5.2
>>> result_number("Fc1ccc(-c2cc(=S)c3ccc4ccccc4c3o2)cc1")
3.2
>>> result_number("O=c1cc(-c2cccc(O)c2)oc2c1ccc1ccccc12")
6.2
>>> result_number("Fc1cccc(-c2cc(=S)c3ccc4ccccc4c3o2)c1")
26.8
>>> result_number("COc1ccc(-c2cc(=O)c3ccc4ccccc4c3o2)cc1")
13.5
>>> result_number("O=c1cc(-c2cccc(F)c2)oc2c1ccc1ccccc12")
28.3
>>> result_number("O=c1cc(-c2cc(Cl)cc(Cl)c2)oc2c1ccc1ccccc12")
37.4
>>> result_number("CN(C)c1cccc(-c2cc(=O)c3ccc4ccccc4c3o2)c1")
44.7
>>> result_number("O=c1cc(-c2cccnc2)oc2c1ccc1ccccc12")
3.7
>>> result_number("O=C1C=C(c2ccccc2)S(=O)(=O)c2c1ccc1ccccc21")
0.8
>>> result_number("O=c1cc(-c2cccc(C(F)(F)F)c2)oc2c1ccc1ccccc12")
181
>>> result_number("O/N=c1\\cc(-c2ccc(Cl)cc2)oc2c1ccc1ccccc12")
9.4
>>> result_number("O=C1C=C(c2cccc(Cl)c2)S(=O)(=O)c2c1ccc1ccccc21")
2.8
>>> result_number("COc1cccc(-c2cc(=S)c3ccc4ccccc4c3o2)c1")
33.5
>>> result_number("CN1CCN(c2cccc(-c3cc(=O)c4ccc5ccccc5c4o3)c2)CC1")
31
>>> result_number("COc1cccc(-c2cc(=O)c3ccc4ccccc4c3o2)c1")
46.8
>>> result_number("O=c1cc(-c2cccc(Cl)c2)oc2c1ccc1ccccc12")
150
>>> result_number("O=c1cc(-c2ccccc2F)sc2c1ccc1ccccc12")
5.6
>>> result_number("S=c1cc(-c2cccc(Cl)c2)oc2c1ccc1ccccc12")
32.4

----------
# Species: Homo sapiens
# test.name: Selectivity index, ratio of IC50 for human recombinant CYP1A1 to IC50 for human recombinant CYP1B1 using 7-ethoxyresorufin as substrate in presence of glucose-6-phosphate, glucose-6-phosphate dehydrogenase and NADPH-generating system by fluorometry
measured.quantity: Ratio IC50

>>> result_number("Fc1ccccc1-c1cc(=S)c2ccc3ccccc3c2o1")
3
>>> result_number("O=c1cc(-c2ccccc2F)sc2c1ccc1ccccc12")
0.8
>>> result_number("O/N=c1\\cc(-c2ccccc2)oc2c1ccc1ccccc12")
10
>>> result_number("COc1cc(Cl)cc(-c2cc(=O)c3ccc4ccccc4c3o2)c1")
51.2
>>> result_number("COc1cc(-c2cc(=S)c3ccc4ccccc4c3o2)cc(OC)c1OC")
1.5
>>> result_number("O=c1cc(-c2cccc(Cl)c2)oc2c1ccc1ccccc12")
10.6
>>> result_number("O=c1cc(-c2cccc(C(F)(F)F)c2)oc2c1ccc1ccccc12")
32.1
>>> result_number("O=c1cc(-c2ccncc2)oc2c1ccc1ccccc12")
2
>>> result_number("S=c1cc(-c2ccccc2)oc2c1ccc1ccccc12")
8.4
>>> result_number("CN1CCN(c2cc(Cl)cc(-c3cc(=O)c4ccc5ccccc5c4o3)c2)CC1")
0.8
>>> result_number("COc1cccc(-c2cc(=S)c3ccc4ccccc4c3o2)c1")
8
>>> result_number("O=c1cc(-c2ccc(Cl)cc2)sc2c1ccc1ccccc12")
0.2

----------
# study.target: Cytochrome P450 1A1 (Homo sapiens, UniProt P04798)
# Sequence (P04798 whole entry): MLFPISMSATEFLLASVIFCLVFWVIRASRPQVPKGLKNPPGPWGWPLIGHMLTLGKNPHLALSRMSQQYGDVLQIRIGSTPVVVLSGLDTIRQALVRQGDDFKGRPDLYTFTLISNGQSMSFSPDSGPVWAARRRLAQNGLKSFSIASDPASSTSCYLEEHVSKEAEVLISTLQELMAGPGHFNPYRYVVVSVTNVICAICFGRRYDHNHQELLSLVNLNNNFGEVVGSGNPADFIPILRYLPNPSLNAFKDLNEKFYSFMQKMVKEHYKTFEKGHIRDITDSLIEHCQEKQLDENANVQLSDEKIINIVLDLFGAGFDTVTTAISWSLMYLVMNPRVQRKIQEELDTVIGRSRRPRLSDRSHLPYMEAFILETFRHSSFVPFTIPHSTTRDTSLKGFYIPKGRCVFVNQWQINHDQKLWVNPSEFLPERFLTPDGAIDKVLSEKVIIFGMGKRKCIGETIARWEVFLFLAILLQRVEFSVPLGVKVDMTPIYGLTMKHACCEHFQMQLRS
# test.name: Inhibition of human recombinant CYP1A1 using 7-ethoxyresorufin as substrate in presence of glucose-6-phosphate, glucose-6-phosphate dehydrogenase and NADPH-generating system incubated for 15 mins by fluorometry
measured.quantity: IC50 (nM)

>>> result_number("O=c1cc(-c2cc(Cl)cc(Cl)c2)oc2c1ccc1ccccc12")
25.5
>>> result_number("O=c1cc(-c2ccc(F)c(F)c2)oc2c1ccc1ccccc12")
11.8
>>> result_number("S=c1cc(-c2cccc(Cl)c2)oc2c1ccc1ccccc12")
31.7
>>> result_number("COc1cc(Cl)cc(-c2cc(=O)c3ccc4ccccc4c3o2)c1")
164
>>> result_number("O=c1cc(-c2cccc(Cl)c2)oc2c1ccc1ccccc12")
5.2
>>> result_number("O/N=c1\\cc(-c2ccccc2)oc2c1ccc1ccccc12")
32.1
>>> result_number("O=c1cc(-c2ccccc2Cl)sc2c1ccc1ccccc12")
45.8
>>> result_number("O=c1cc(-c2cccc(F)c2)oc2c1ccc1ccccc12")
16.7
>>> result_number("O=c1cc(-c2ccc(F)cc2)oc2c1ccc1ccccc12")
6.7
>>> result_number("O=c1cc(-c2cccnc2)oc2c1ccc1ccccc12")
25.3
>>> result_number("O=c1cc(-c2ccc(Cl)cc2)sc2c1ccc1ccccc12")
9
>>> result_number("O/N=c1\\cc(-c2cccc(Cl)c2)oc2c1ccc1ccccc12")
94.9
>>> result_number("O=c1cc(-c2ccccc2Cl)oc2c1ccc1ccccc12")
228
>>> result_number("O=c1cc(-c2cccc(C(F)(F)F)c2)oc2c1ccc1ccccc12")
16.7
>>> result_number("O=c1cc(-c2ccccc2F)oc2c1ccc1ccccc12")
12.2
>>> result_number("CN1CCN(c2cc(Cl)cc(-c3cc(=O)c4ccc5ccccc5c4o3)c2)CC1")
37.9
>>> result_number("O=c1cc(-c2ccc(Cl)cc2)oc2c1ccc1ccccc12")
4.3
>>> result_number("S=c1cc(-c2ccc(Cl)cc2)oc2c1ccc1ccccc12")
9.6
>>> result_number("CN1CCN(c2cccc(-c3cc(=O)c4ccc5ccccc5c4o3)c2)CC1")
34.6
>>> result_number("CN(C)c1cccc(-c2cc(=O)c3ccc4ccccc4c3o2)c1")
9.6
>>> result_number("O=c1cc(-c2cccc(O)c2)oc2c1ccc1ccccc12")
53.1
>>> result_number("S=c1cc(-c2ccccc2)oc2c1ccc1ccccc12")
65.4
>>> result_number("O=c1cc(-c2ccc3ccccc3c2)oc2c1ccc1ccccc12")
46.4

----------
The following molecules are listed with their measured Ratio IC50 values.
# Organism: Homo sapiens
# test.name: Selectivity index, ratio of IC50 for human recombinant CYP1A1 to IC50 for human recombinant CYP1B1 using 7-ethoxyresorufin as substrate in presence of glucose-6-phosphate, glucose-6-phosphate dehydrogenase and NADPH-generating system by fluorometry
measured.quantity: Ratio IC50

>>> result("O=c1cc(-c2cccc(F)c2)oc2c1ccc1ccccc12")
7.6
>>> result("COc1cccc(-c2cc(=O)c3ccc4ccccc4c3o2)c1")
9.4
>>> result("O=c1cc(-c2ccccc2Cl)sc2c1ccc1ccccc12")
0.5
>>> result("O=c1cc(-c2ccc(F)c(F)c2)oc2c1ccc1ccccc12")
2.1
>>> result("CN1CCN(c2ccc(-c3cc(=O)c4ccc5ccccc5c4o3)cc2)CC1")
2.4
>>> result("O=c1cc(-c2cccnc2)oc2c1ccc1ccccc12")
4.1
>>> result("O=c1cc(-c2cccc(O)c2)oc2c1ccc1ccccc12")
3.6
>>> result("Fc1ccc(-c2cc(=S)c3ccc4ccccc4c3o2)cc1")
0.9
>>> result("O=c1cc(-c2ccccc2Cl)oc2c1ccc1ccccc12")
10.6
>>> result("O=c1cc(-c2ccc3ccccc3c2)oc2c1ccc1ccccc12")
1
>>> result("O=c1cc(-c2ccccn2)oc2c1ccc1ccccc12")
10.8
>>> result("O=c1cc(-c2ccccc2F)oc2c1ccc1ccccc12")
3.7
